target: human TASK-3 (Homo sapiens (Human), UniProt Q9NPC2)
Sequence (Q9NPC2 whole entry): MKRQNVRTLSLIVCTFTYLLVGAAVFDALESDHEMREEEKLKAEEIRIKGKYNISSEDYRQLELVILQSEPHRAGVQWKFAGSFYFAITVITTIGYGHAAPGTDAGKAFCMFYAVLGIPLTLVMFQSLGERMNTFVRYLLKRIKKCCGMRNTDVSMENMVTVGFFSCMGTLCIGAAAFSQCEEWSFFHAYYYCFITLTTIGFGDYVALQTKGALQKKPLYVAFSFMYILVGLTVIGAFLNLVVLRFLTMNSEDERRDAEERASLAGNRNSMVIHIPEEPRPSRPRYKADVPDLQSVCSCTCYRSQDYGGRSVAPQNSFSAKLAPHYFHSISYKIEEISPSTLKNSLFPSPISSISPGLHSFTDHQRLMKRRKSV
experiment notes: Two-electrode voltage clamp analysis of human TASK-3 channels in Xenopus laevis oocytes
Assay type: cell-based
test parameters: oocytes, voltage clamp; comparative compounds, Table 1B
Description: B-1. In Vitro Electrophysiological Analysis of the Human TASK-1 and TASK-3 Channels Via Two-Electrode Voltage Clamp Technique in Xenopus laevis Oocytes Xenopus laevis oocytes were selected as described elsewhere in an exemplary manner [Decher et al., FEBS Lett. 492, 84-89 (2001)]. […] The measurements were carried out as described [Decher et al., FEBS Lett. 492, 84-89 (2001)] at room temperature (21-22° C.) using a Turbo TEC 10CD amplifier (NPI), recorded at 2 kHz and filtered with 0.4 kHz. […]
As shown below, each of these compounds has a reported IC50 value.

Observe how each entry below is paired with its result.
# compound, IC50
rows = [
    ("O=C(c1ccncc1)N1CCN(Cc2c(-c3ccc(Cl)cc3)nc3ccc(C4CC4)cn23)CC1 [drawing 124]", "> 1 µM"),
    ("O=C(c1cnccn1)N1CCN(Cc2c(-c3ccc(Cl)cc3)nc3ccc(C4CC4)cn23)CC1 [drawing 126]", "> 10 µM"),
    ("COc1cccc(-c2nc3ccccn3c2CN2CCN(C(=O)C3CCC3)CC2)c1 [drawing 125]", "> 1 µM"),
    ("O=C(c1ccccc1Cl)N1CCN(Cc2c(-c3ccc(Cl)cc3)nc3ccc(-c4ccccc4)cn23)CC1 [drawing 122]", "> 30 µM"),
]

query: Jot down IC50 (human TASK-3 (Homo sapiens (Human), UniProt Q9NPC2)) of O=C(c1cccc(F)c1)N1CCN(Cc2c(-c3ccc(Cl)cc3)nc3ccc(C4CC4)cn23)CC1 [drawing 123] .
result: > 1 µM
